Assay: Oral plasma exposure in SCID mouse at 5 mg/kg, po measured after 6 hrs
Assay type: ADME, organism-based
Details: SCID, plasma
Observable: concentration at 6 h (ng/mL)

>>> test_result("CC(=O)N1CCc2c(c(N3CCCc4cc(-c5cnn(C)c5)c(C(F)F)cc43)nn2C2CCN(CC3CN(c4ccc5c(c4)C(=O)N(C4CCC(=O)NC4=O)C5=O)C3)CC2)C1 (stereo not drawn)")
7.4
>>> test_result("CC(=O)N1CCc2c(c(N3CCCc4cc(-c5cnn(C)c5)c(C(F)F)cc43)nn2C2CCN(C(=O)CCNc3ccc4c(c3)C(=O)N(C3CCC(=O)NC3=O)C4=O)CC2)C1 (stereo not drawn)")
2
>>> test_result("CC(=O)N1CCc2c(c(N3CCCc4cc(-c5cnn(C)c5)c(C(F)F)cc43)nn2C2CCN(C3CN(c4ccc5c(c4)C(=O)N(C4CCC(=O)NC4=O)C5=O)C3)CC2)C1 (stereo not drawn)")
613

###

Biological target: Protein cereblon/Histone acetyltransferase p300 (Homo sapiens, UniProt Q09472+Q96SW2)
Sequence (Q09472 whole entry): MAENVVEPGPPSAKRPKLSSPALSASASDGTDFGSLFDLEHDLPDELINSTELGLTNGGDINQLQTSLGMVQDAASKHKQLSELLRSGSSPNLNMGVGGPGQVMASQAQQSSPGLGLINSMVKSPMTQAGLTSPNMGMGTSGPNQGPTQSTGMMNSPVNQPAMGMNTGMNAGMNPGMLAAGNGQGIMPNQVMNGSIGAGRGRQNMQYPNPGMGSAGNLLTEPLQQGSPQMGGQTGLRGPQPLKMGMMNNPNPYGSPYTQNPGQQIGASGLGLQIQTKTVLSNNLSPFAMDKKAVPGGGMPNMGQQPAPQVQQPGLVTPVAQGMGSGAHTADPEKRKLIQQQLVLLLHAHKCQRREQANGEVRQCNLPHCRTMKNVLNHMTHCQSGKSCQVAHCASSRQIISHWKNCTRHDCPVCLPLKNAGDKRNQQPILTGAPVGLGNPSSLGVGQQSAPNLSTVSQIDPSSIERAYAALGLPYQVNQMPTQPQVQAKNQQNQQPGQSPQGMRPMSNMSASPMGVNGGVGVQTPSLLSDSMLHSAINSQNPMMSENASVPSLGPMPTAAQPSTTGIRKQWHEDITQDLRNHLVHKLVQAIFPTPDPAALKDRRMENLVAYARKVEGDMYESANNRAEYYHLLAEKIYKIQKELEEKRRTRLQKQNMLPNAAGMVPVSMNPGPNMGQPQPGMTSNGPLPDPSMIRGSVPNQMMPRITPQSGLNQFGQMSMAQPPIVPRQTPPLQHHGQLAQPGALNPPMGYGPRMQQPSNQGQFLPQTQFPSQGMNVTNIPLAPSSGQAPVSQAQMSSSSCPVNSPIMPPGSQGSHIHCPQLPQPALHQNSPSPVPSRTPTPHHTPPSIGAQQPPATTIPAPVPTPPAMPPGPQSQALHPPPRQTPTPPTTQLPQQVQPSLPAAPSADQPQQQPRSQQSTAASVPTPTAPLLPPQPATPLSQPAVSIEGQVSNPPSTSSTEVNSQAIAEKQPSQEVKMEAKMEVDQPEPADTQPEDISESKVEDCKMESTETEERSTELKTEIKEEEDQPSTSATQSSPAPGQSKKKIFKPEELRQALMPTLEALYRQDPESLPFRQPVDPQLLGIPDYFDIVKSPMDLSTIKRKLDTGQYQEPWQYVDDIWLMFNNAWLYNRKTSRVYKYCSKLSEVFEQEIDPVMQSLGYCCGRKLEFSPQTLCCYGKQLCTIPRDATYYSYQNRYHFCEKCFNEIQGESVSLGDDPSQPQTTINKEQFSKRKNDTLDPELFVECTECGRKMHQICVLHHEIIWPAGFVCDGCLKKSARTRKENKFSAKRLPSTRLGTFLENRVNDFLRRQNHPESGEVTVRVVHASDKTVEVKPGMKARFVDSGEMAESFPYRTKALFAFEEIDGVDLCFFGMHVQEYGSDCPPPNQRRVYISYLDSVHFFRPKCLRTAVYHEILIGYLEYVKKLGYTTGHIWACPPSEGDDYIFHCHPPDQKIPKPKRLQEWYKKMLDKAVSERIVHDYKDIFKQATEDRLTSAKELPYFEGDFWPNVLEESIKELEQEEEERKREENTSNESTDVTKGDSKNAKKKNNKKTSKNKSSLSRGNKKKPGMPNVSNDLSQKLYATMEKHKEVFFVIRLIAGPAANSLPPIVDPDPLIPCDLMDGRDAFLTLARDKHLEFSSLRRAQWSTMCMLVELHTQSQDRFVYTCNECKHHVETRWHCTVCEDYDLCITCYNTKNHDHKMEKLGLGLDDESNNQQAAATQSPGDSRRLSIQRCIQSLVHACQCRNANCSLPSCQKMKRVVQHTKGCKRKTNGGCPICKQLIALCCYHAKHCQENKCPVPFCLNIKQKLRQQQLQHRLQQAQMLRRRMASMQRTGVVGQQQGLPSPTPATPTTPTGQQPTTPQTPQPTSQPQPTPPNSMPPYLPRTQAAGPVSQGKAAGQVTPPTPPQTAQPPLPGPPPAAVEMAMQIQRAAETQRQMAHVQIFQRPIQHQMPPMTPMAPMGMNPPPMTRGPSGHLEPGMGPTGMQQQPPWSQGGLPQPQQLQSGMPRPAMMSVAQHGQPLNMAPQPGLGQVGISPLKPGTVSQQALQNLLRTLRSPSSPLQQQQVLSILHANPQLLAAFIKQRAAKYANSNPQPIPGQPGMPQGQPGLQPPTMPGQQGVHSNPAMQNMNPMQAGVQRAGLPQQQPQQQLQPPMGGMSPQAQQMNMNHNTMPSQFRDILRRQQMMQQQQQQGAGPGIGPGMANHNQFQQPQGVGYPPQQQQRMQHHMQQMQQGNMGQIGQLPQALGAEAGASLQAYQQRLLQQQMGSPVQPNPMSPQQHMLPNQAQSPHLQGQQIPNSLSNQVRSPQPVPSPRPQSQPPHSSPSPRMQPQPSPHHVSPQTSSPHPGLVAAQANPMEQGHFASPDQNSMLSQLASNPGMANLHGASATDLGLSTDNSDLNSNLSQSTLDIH
Sequence (Q96SW2 whole entry): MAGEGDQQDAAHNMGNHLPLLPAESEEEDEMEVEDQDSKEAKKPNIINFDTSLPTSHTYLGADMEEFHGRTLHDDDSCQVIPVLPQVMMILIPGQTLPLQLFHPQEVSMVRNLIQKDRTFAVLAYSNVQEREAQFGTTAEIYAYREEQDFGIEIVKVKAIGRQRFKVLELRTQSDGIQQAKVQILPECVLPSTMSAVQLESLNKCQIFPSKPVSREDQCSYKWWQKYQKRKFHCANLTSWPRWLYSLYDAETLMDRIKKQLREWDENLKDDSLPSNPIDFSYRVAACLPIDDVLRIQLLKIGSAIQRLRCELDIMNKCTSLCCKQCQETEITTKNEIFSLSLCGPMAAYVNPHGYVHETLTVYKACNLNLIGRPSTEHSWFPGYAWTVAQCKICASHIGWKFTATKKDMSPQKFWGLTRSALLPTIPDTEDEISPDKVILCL
Experiment: PROTAC activity at p300/CRBN in human VCaP cells assessed as protein degradation incubated for 4 hrs by Western blot analysis
Assay type: cell-based
Observable: DC50 (nM)

>>> test_result("CC(=O)N1CCc2c(c(N3CCCc4cc(-c5cnn(C)c5)c(C(F)F)cc43)nn2C2CCN(C(=O)CCNc3ccc4c(c3)C(=O)N(C3CCC(=O)NC3=O)C4=O)CC2)C1 (configuration not stated)")
0.4
>>> test_result("CC(=O)N1CCc2c(c(N3CCCc4cc(-c5cnn(C)c5)c(C(F)F)cc43)nn2C2CCN(C3CN(c4ccc5c(c4)C(=O)N(C4CCC(=O)NC4=O)C5=O)C3)CC2)C1 (configuration not stated)")
1.1
>>> test_result("CC(=O)N1CCc2c(c(N3CCCc4cc(-c5cnn(C)c5)c(C(F)F)cc43)nn2C2CCN(CC3CN(c4ccc5c(c4)C(=O)N(C4CCC(=O)NC4=O)C5=O)C3)CC2)C1 (configuration not stated)")
0.4
>>> test_result("CC(=O)N1CCc2c(c(N3CCCc4cc(-c5cnn(C)c5)c(C(F)F)cc43)nn2C2CCN(C(=O)CCCCCNc3cccc4c3C(=O)N(C3CCC(=O)NC3=O)C4=O)CC2)C1 (configuration not stated)")
0.2
>>> test_result("CC(=O)N1CCc2c(c(N3CCCc4cc(-c5cnn(C)c5)c(C(F)F)cc43)nn2C2CCN(C(=O)CCCNc3cccc4c3C(=O)N(C3CCC(=O)NC3=O)C4=O)CC2)C1 (configuration not stated)")
1.2
>>> test_result("CC(=O)N1CCc2c(c(N3CCCc4cc(-c5cnn(C)c5)c(C(F)F)cc43)nn2C2CCN(C(=O)CCCCNc3ccc4c(c3)C(=O)N(C3CCC(=O)NC3=O)C4=O)CC2)C1 (configuration not stated)")
0.4

###

Assay: Half life in male ICR mouse at 1 mg/kg, iv measured upto 24 hrs by LC-MS/MS analysis
Assay type: ADME, organism-based
Details: in vivo
Observable: half-life (h)

>>> test_result("CC(=O)N1CCc2c(c(N3CCCc4cc(-c5cnn(C)c5)c(C(F)F)cc43)nn2[C@H]2CC[C@H](CN3CCN(c4ccc5c(c4)C(=O)N(C4CCC(=O)NC4=O)C5=O)CC3)CC2)C1 (stereo partly specified)")
2.8

###

Assay: Oral plasma exposure in SCID mouse at 5 mg/kg, po measured after 3 hrs
Type: ADME, organism-based
Settings: SCID, plasma
Recorded concentration at 3 h for the following compounds
Observable: concentration at 3 h

>>> test_result("CC(=O)N1CCc2c(c(N3CCCc4cc(-c5cnn(C)c5)c(C(F)F)cc43)nn2C2CCN(C(=O)CCNc3ccc4c(c3)C(=O)N(C3CCC(=O)NC3=O)C4=O)CC2)C1 (stereo not drawn)")
"3.2 ng/mL"
>>> test_result("CC(=O)N1CCc2c(c(N3CCCc4cc(-c5cnn(C)c5)c(C(F)F)cc43)nn2C2CCN(C(=O)CCCCNc3cccc4c3C(=O)N(C3CCC(=O)NC3=O)C4=O)CC2)C1 (stereo not drawn)")
"2.7 ng/mL"
>>> test_result("CC(=O)N1CCc2c(c(N3CCCc4cc(-c5cnn(C)c5)c(C(F)F)cc43)nn2C2CCN(C3CN(c4ccc5c(c4)C(=O)N(C4CCC(=O)NC4=O)C5=O)C3)CC2)C1 (stereo not drawn)")
"962 ng/mL"
>>> test_result("CC(=O)N1CCc2c(c(N3CCCc4cc(-c5cnn(C)c5)c(C(F)F)cc43)nn2C2CCN(C3CC4(C3)CN(c3ccc5c(c3)C(=O)N(C3CCC(=O)NC3=O)C5=O)C4)CC2)C1 (stereo not drawn)")
"235 ng/mL"
>>> test_result("CC(=O)N1CCc2c(c(N3CCCc4cc(-c5cnn(C)c5)c(C(F)F)cc43)nn2C2CCN(C(=O)CNc3ccc4c(c3)C(=O)N(C3CCC(=O)NC3=O)C4=O)CC2)C1 (stereo not drawn)")
"1.4 ng/mL"
>>> test_result("CC(=O)N1CCc2c(c(N3CCCc4cc(-c5cnn(C)c5)c(C(F)F)cc43)nn2C2CCN(C3CC4(CCN(c5ccc6c(c5)C(=O)N(C5CCC(=O)NC5=O)C6=O)CC4)C3)CC2)C1 (stereo not drawn)")
"312 ng/mL"
>>> test_result("CC(=O)N1CCc2c(c(N3CCCc4cc(-c5cnn(C)c5)c(C(F)F)cc43)nn2C2CCN(CC3CN(c4ccc5c(c4)C(=O)N(C4CCC(=O)NC4=O)C5=O)C3)CC2)C1 (stereo not drawn)")
"16.7 ng/mL"
>>> test_result("CC(=O)N1CCc2c(c(N3CCCc4cc(-c5cnn(C)c5)c(C(F)F)cc43)nn2C2CCN(C3CCN(c4ccc5c(c4)C(=O)N(C4CCC(=O)NC4=O)C5=O)CC3)CC2)C1 (stereo not drawn)")
"122 ng/mL"

###

Documented DC50 across a set of molecules
Target: Protein cereblon/CREB-binding protein (Homo sapiens, UniProt Q92793+Q96SW2)
Assay: PROTAC activity at CBP/CRBN in human VCaP cells assessed as protein degradation incubated for 4 hrs by Western blot analysis
Type: cell-based
Observable: DC50 (nM)

>>> test_result("CC(=O)N1CCc2c(c(N3CCCc4cc(-c5cnn(C)c5)c(C(F)F)cc43)nn2C2CCN(C3CN(c4ccc5c(c4)C(=O)N(C4CCC(=O)NC4=O)C5=O)C3)CC2)C1 (stereo unspecified)")
1.3
>>> test_result("CC(=O)N1CCc2c(c(N3CCCc4cc(-c5cnn(C)c5)c(C(F)F)cc43)nn2C2CCN(C(=O)CNc3ccc4c(c3)C(=O)N(C3CCC(=O)NC3=O)C4=O)CC2)C1 (stereo unspecified)")
0.7
>>> test_result("CC(=O)N1CCc2c(c(N3CCCc4cc(-c5cnn(C)c5)c(C(F)F)cc43)nn2C2CCN(C3CC4(C3)CN(c3ccc5c(c3)C(=O)N(C3CCC(=O)NC3=O)C5=O)C4)CC2)C1 (stereo unspecified)")
0.5
>>> test_result("CC(=O)N1CCc2c(c(N3CCCc4cc(-c5cnn(C)c5)c(C(F)F)cc43)nn2C2CCN(C(=O)CCNc3cccc4c3C(=O)N(C3CCC(=O)NC3=O)C4=O)CC2)C1 (stereo unspecified)")
8
>>> test_result("CC(=O)N1CCc2c(c(N3CCCc4cc(-c5cnn(C)c5)c(C(F)F)cc43)nn2C2CCN(C3CC4(CCN(c5ccc6c(c5)C(=O)N(C5CCC(=O)NC5=O)C6=O)CC4)C3)CC2)C1 (stereo unspecified)")
1.1
>>> test_result("CC(=O)N1CCc2c(c(N3CCCc4cc(-c5cnn(C)c5)c(C(F)F)cc43)nn2[C@H]2CC[C@H](CN3CCN(c4cccc5c4C(=O)N(C4CCC(=O)NC4=O)C5=O)CC3)CC2)C1 (stereo partly specified)")
700
>>> test_result("CC(=O)N1CCc2c(c(N3CCCc4cc(-c5cnn(C)c5)c(C(F)F)cc43)nn2[C@H]2CC[C@H](CN3CCN(c4ccc5c(c4)C(=O)N(C4CCC(=O)NC4=O)C5=O)CC3)CC2)C1 (stereo partly specified)")
0.3
>>> test_result("CC(=O)N1CCc2c(c(N3CCCc4cc(-c5cnn(C)c5)c(C(F)F)cc43)nn2C2CCN(C(=O)CCCCCNc3cccc4c3C(=O)N(C3CCC(=O)NC3=O)C4=O)CC2)C1 (stereo unspecified)")
0.4

###

Test: Drug exposure in CB17 SCID mouse xenografted with human VCaP cells assessed compound concentration in tumor at 1 mg/kg, po measured after 3 hrs by LC-MS/MS analysis
Assay type: ADME, organism-based, Neoplasm
Settings: read-out: Drug uptake
Observable: concentration at 3 h

>>> test_result("CC(=O)N1CCc2c(c(N3CCCc4cc(-c5cnn(C)c5)c(C(F)F)cc43)nn2[C@H]2CC[C@H](CN3CCN(c4ccc5c(c4)C(=O)N(C4CCC(=O)NC4=O)C5=O)CC3)CC2)C1 (stereo partly specified)")
"30 ng/mL"
